Values compiled from paper PMC5540273.

Reported %Inh values for a set of compounds
Test system: PKMYT1
condition_context: concentration: 1 μM, replicates: in singlicate; n = 1;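 further: KINOMEscan kinase panel screen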
Express your answer in %, writing the number without its unit.

Known %Inh results, listed for orientation:
compound	%Inh, %
Cn1cc(-c2cnc(N)c3c(-c4ccc5c(c4)CCN5C(=O)Cc4ccccc4)csc23)cn1	8
CN(c1ccc(NC(=O)Nc2cccc(Cl)c2)cc1)c1ccnc(N)n1.Cl	3
COC(=O)Nc1nc2ccc(Oc3ccc(NC(=O)Nc4cc(C(F)(F)F)ccc4F)cc3)cc2[nH]1.Cl	0
NCCC(NC(=O)c1cc(Br)c(-c2ccnc3[nH]ccc23)s1)c1ccccc1.O=C(O)C(F)(F)F.O=C(O)C(F)(F)F (stereo not drawn)	0
COc1cccc(NC(=O)NCCNc2ccnc(Nc3ccc(F)cc3)n2)c1	1

Enquiry: Query %Inh on PKMYT1 for `Cc1ccc(O)cc1Nc1ccnc2cc(-c3ccc(CN4CCCCC4)o3)ccc12`
Return: 0

Enquiry: Then this compound: `CN(C)CCOc1ccc(-c2cc(-c3ccc(Cl)c(O)c3)c(-c3ccncc3)[nH]2)cc1.Cl.Cl`
Return: 0

Enquiry: Then this compound: `Cc1ccccc1CC(=O)N1CCc2cc(-c3cn(C)c4ncnc(N)c34)ccc21`
Return: 0

Enquiry: Then this compound: `COc1cccc2c(-c3ccncc3)c(-c3ccc(F)cc3)nn12`
Return: 0

----------
Test system: WEE2
condition_context: concentration: 1 μM, replicates: in singlicate; n = 1
metric: %Inh (%)
Express your answer in %, writing the number without its unit.

compound	test_system	display_unit	%Inh
Cc1ccc(O)cc1Nc1ccnc2cc(-c3ccc(CN4CCCCC4)o3)ccc12 [GW557777]	WEE2	%	0

Enquiry: Query %Inh on WEE2 for CCn1cnc2c(NCc3ccccc3)ncnc21 [SKF-96418]
Return: 0

Enquiry: Then this compound: COc1cccc(NC(=O)NCCNc2ccnc(Nc3ccc(F)cc3)n2)c1 [GSK1379879]
Return: 6

Enquiry: Then this compound: Cc1nn2c(=O)cc(N3CCO[C@H](C)C3)nc2n1Cc1cccc(Cl)c1Cl [GSK2373693]
Return: 0

Enquiry: Then this compound: `CS(=O)(=O)c1cccc(CNc2nc(Nc3ccc4c(c3)CCC(=O)N4)ncc2C(F)(F)F)c1`
Return: 0

Enquiry: Then this compound: CN(c1ccc(NC(=O)N2CCN(CCCN3CCOCC3)CC2)cc1)c1ccnc(Nc2ccc(CS(C)(=O)=O)cc2)n1.Cl [GW830899]
Return: 79

Enquiry: Then this compound: Cl.Cl.NC(CNC(=O)c1cc(Br)c(-c2ccnc3[nH]ccc23)s1)c1ccccc1 (centres unmarked) [GSK1322949]
Return: 0

Enquiry: Then this compound: `CC(C)(C)c1ccc(C(=O)Nc2cn3cc(-n4ccnc4)ccc3n2)cc1`
Return: 36

Enquiry: Then this compound: Cl.Cl.NCC(NC(=O)c1cc(-c2cccnc2)c(-c2ccnc3[nH]ccc23)s1)c1ccccc1 (centres unmarked) [GSK1323434]
Return: 13

----------
System: ALK
condition_context: concentration: 1 μM, replicates: in singlicate; n = 1
metric: %Inh (%)
Express your answer in %, writing the number without its unit.

molecule	test_system	%Inh, %
Cc1cccc(Nc2nc(NCCN)ncc2C(N)=O)c1 [GSK1292139]	ALK	46
O=C(O)C(F)(F)F.O=c1[nH]ccc2nc(N[C@@H]3CCNC3)nc(Nc3cc(Cl)cc(Cl)c3)c12 [GSK2188764]	ALK	90.5
Cl.O=C(Nc1ccc(Oc2ccc3[nH]c(NC(=O)c4ccco4)nc3c2)cc1)Nc1cc(C(F)(F)F)ccc1F [GW683134]	ALK	27

Enquiry: Using the record for CC(C)c1nc(-c2ccc(F)c(NS(=O)(=O)c3c(F)cccc3F)c2)c(-c2ccnc(Nc3ccc(N4CCOCC4)nc3)n2)s1 [GSK1804250] , report its %Inh.
Return: 26
